Test system: HepG2
Experiment Description: Antiproliferative activity against human HepG2 cells over expressing EGFR after 48 hrs by MTT assay
Type: functional, cell-based
Stated Conditions: HepG2, 48 h
pIC50: −log10 of the molar value.
Property Label: pIC50

| Smiles Record | Value Observed |
| --- | --- |
| Cc1nc(Nc2ccc(F)c(Cl)c2)c2cc(NC(=O)CCN(C)C)ccc2n1 | 5.73 |
| O=C(CCN1CCOCC1)Nc1ccc2ncnc(Nc3ccc(F)c(Cl)c3)c2c1 | 4.79 |
| CNCCC(=O)Nc1ccc2ncnc(Nc3ccc(F)c(Cl)c3)c2c1 | 4.83 |
| Fc1ccc(Nc2ncnc3ccccc23)cc1 | 4.54 |
| Cc1nc(Nc2ccc(F)c(Cl)c2)c2cc(NC(=O)CCN3CCOCC3)ccc2n1 | 5.70 |
| Clc1cccc(Nc2ncnc3ccccc23)c1 | 4.63 |

P. Fc1cccc(Nc2ncnc3ccccc23)c1
Q. CNCCC(=O)Nc1ccc2nc(C)nc(Nc3ccc(F)c(Cl)c3)c2c1
For P and Q , which recorded pIC50 is lower? Let me know the label of the one you choose. P
(P: 4.88, Q: 5.95)

a. Brc1cccc(Nc2ncnc3ccccc23)c1
b. COc1cccc(Nc2ncnc3ccccc23)c1
Higher pIC50: a or b ? Lab log: write the label of the selected item as the result. b
(b: 4.62, a: 4.10)

1. c1ccc(Nc2ncnc3ccccc23)cc1
2. O=C(CCN1CCCCC1)Nc1ccc2ncnc(Nc3ccc(F)c(Cl)c3)c2c1
Smaller pIC50 value, 1 vs 2 ? Kindly state the label of the option you pick. 1
(1: 4.18, 2: 5.07)

I. CN(C)CCC(=O)Nc1ccc2ncnc(Nc3ccc(F)c(Cl)c3)c2c1
II. Cc1nc(Nc2ccc(F)c(Cl)c2)c2cc(NC(=O)CCN3CCCCC3)ccc2n1
When their pIC50 values are compared, which is larger, I or II ? Your answer should be the label of the entry you select. II
(II: 5.49, I: 5.03)

Source of measurements: ChEMBL document CHEMBL3808366
